# Test system: P. aeruginosa PAO1
# Type: cell-based, Pseudomonas aeruginosa
# details: P. aeruginosa PAO1; minimal salts media pH 5.5
measured-property: Doubling time

// recorded Doubling time for CCCCCCCCCC(=O)NC1CCOC1=O (racemic) : 14.0 ± 3.8 h

// recorded Doubling time for CCCCCCCC(=O)NC1CCOC1=O (racemic) : 15.0 ± 2 h

// recorded Doubling time for CCCCCCCCCCCC(=O)NC1CCOC1=O (racemic) : 14.9 ± 7.5 h

// recorded Doubling time for `CCCCCCCCCC(=O)CC(=O)N[C@H]1CCOC1=O` : 25.0 ± 3 h

// recorded Doubling time for O=C(O)CCC(=O)O [Succinate] : 0.6 ± .09 h

// recorded Doubling time for CCCCCCCCCCCCCC(=O)NC1CCOC1=O (racemic) : 21.0 ± 5.3 h
